subject-of-test: RPA (Homo sapiens, UniProt P27694;P15927;P35244 1-616;1-270;1-121)
Sequence (P27694 whole entry, chain 1 of 3): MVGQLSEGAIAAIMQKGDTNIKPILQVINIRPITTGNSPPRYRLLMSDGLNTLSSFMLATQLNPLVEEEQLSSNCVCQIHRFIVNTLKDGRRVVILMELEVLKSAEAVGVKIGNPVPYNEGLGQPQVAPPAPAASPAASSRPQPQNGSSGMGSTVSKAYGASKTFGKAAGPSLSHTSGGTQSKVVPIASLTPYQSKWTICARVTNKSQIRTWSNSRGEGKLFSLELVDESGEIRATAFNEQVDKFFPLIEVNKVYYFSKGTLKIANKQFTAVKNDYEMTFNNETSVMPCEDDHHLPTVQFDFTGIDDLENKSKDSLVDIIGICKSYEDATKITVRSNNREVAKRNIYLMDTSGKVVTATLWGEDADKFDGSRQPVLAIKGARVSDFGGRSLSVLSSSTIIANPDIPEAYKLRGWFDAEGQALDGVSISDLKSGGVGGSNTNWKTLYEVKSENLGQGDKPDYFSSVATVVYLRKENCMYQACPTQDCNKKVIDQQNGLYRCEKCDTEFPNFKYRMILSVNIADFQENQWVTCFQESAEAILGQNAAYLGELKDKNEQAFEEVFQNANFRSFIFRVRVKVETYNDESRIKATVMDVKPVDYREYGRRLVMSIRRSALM
Sequence (P15927 whole entry, chain 2 of 3): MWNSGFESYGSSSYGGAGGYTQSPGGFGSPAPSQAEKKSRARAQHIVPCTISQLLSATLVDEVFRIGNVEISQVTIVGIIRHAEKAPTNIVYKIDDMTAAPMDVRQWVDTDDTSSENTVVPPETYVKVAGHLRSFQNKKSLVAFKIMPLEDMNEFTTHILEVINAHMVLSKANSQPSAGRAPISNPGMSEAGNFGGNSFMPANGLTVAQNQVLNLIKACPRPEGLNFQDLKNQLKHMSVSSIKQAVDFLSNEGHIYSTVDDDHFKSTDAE
Sequence (P35244 whole entry, chain 3 of 3): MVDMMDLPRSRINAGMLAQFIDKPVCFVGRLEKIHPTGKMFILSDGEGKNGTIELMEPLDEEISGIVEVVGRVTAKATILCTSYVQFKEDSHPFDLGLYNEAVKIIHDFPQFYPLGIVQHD
run-description: fluorescence anisotropy; 1 mM Mg(OAc)2; FA: 25 mM HEPES pH 8.0, 0.2 M KOAc, 10% glycerol, 0.25 mM TCEP, 1 mM Mg(OAc)2, 0.01% Brij-35, 25 °C, 10 nM DNA; BLI: 25 mM HEPES pH 8.0, 200 mM KOAc, 0.01% Tween-20, 1 mM Mg(OAc)2, 0.25 mM TCEP, 25 °C
assay-conditions: protein: recombinant; tags: 10xHis on RPA3; copies: 1;1;1; label: 5' 6-FAM; single strand
reported-property: Kd (nM)
Numbers only, in nM.

Record request: Kd value, item TATCGAATCCGTCTAGTCAACGCTGCCGAATTCTACCAGT (ssDNA) [FAM-SSA4 (40 nt)]
3.6

This collection of values is drawn from paper PMC11096129.
